# maps each entry to its inhibition at 0.1 µM
- Tested on: ERE-βGlob-Luc, MELN lineage (MCF-7)
- MEASUREMENT_DESCRIPTION: Anti-oestrogenic effect, MELN lineage activated by estradiol
- Format: cell-based, human
- TEST_CONDITIONS: Homo sapiens, MCF7; 10^-7 M, cells activated by 10^-9 M estradiol; read-out: anti-oestrogenic effect, inhibition
PROPERTY: inhibition at 0.1 µM

| COMPOUND | PROPERTY | REPORTED_VALUE |
| --- | --- | --- |
| C/C(=C\c1ccc2c(c1)C(C)(C)CCC2(C)C)c1ccc(C(=O)O)nc1 [CB12273] | inhibition at 0.1 µM | 7 to 16% |
| C/C(=C\c1ccc2c(c1)C(C)(C)CCC2(C)C)c1ccc(C(=O)O)cc1 [CB24159, reference compound] | inhibition at 0.1 µM | 26 to 43% |
| C/C(=C\c1ccc2c(c1)C(C)(C)CCC2(C)C)c1cc(C(=O)O)no1 [CB57201] | inhibition at 0.1 µM | 1 to 9% |
| C/C(=C\c1ccc2c(c1)C(C)(C)CCC2(C)C)c1cc(C(=O)O)cs1 [CB80660] | inhibition at 0.1 µM | 20 to 42% |

meta.source: patent US6265423A
